Reported metric: melting point

chem_smiles=O=C(NC[C@H]1CC[C@H](C(=O)O)CC1)c1cc(C(F)(F)F)cc2ccn(Cc3cc4cc(Cl)ccc4o3)c12 reported_metric="melting point" result="211 to 213 °C"
chem_smiles=O=C(NC[C@H]1CC[C@H](C(=O)O)CC1)c1cc(C(F)(F)F)cc2ccn(Cc3ccc(Cl)cn3)c12 reported_metric="melting point" result="224 to 226 °C (dec.)"
chem_smiles=Cc1cc(C(=O)NC[C@H]2CC[C@H](C(=O)O)CC2)c2c(ccn2Cc2cc3ccccc3cn2)c1 reported_metric="melting point" result="251 to 252 °C (dec.)"
chem_smiles=O=C(NC[C@H]1CC[C@H](C(=O)O)CC1)c1cc(Cl)cc2ccn(Cc3cc4ccccc4o3)c12 reported_metric="melting point" result="228 to 230 °C"
chem_smiles=O=C(O)c1ccc(CNC(=O)c2cc(C(F)(F)F)cc3ccn(CCOc4ccc(Cl)cc4)c23)cc1 reported_metric="melting point" result="208 to 210 °C"

Quick one: melting point for O=C(O)c1ccc(CNC(=O)c2cc(Cl)cc3ccn(Cc4ccc5ccccc5n4)c23)cc1 ?
243 to 244 °C (dec.)

Quick one: melting point for Cc1cc(C(=O)NC[C@H]2CC[C@H](C(=O)O)CC2)c2c(ccn2Cc2ccc3ccccc3n2)c1 ?
244 to 245 °C (dec.)

Hey, just so you know, these numbers are from patent US8598355B2.
